- measurement notes: qHTS assay for identifying genotoxic compounds that show differential cytotoxicity against isogenic chicken DT40 cell lines with known DNA damage response pathways - Rad54/Ku70 mutant cell line (AID 743015); note: nearly all actives have a fitted effect of over 60% in size
- condition summary: DT40 Rad54/Ku70 mutant viability, CellTiter-Glo, 40 h; series mostly up to 66.8 µM
Inconclusive results are not listed. The source made the active and inactive calls. Calls come from the whole dose curve; as a rule, active = well fitted cell-killing curve with a large enough effect in the repeat runs; inconclusive = weak or mixed curves; inactive = no such curve, though single readings can be large or run the other way.
Possible outcomes: y (active), n (inactive)

1. O=C=NC1CCCCC1; n
2. CCN(C(C)=O)c1cccc(-c2ccnc3c(C#N)cnn23)c1; n
3. C=CCN1C[C@H](C)N([C@H](c2ccc(C(=O)N(CC)CC)cc2)c2cccc(OC)c2)C[C@H]1C; y
4. O=C1NC(=O)C(=O)C(=O)N1; n
5. CCOP(=S)(OCC)SCSc1cc(Cl)ccc1Cl; n
6. CCCCCl; n
7. C=C(Cl)Cl; n
8. COC1CC(=C(c2cccs2)c2cccs2)C[N+](C)(C)C1 (stereo not given); y
9. CCCCCCCCCCCCN=C(N)N; y
10. COc1ccc2c(c1OC)C(=O)O[C@H]2[C@@H]1c2cc3c(cc2CCN1C)OCO3; n
11. CCCCCCCCP(=O)(O)O; n
12. c1ccc2c(c1)-c1cccc3cccc-2c13; n
13. O=C(N[C@H]1CN2CCC1CC2)c1ccc2c(c1)OCCO2; n
14. O=[N+]([O-])c1cc(Cl)c(Cl)cc1Cl; n
15. FC(Cl)(Cl)C(F)(Cl)Cl; n
16. CCC1CCC(=O)O1 (stereo not given); n
17. CC(C)(C#N)C(C)(C)C#N; n
18. C=CCSSCC=C; n
19. C[N+](C)(C)CCOC(=O)C(O)(c1ccccc1)c1ccccc1; n
20. CCCCC(CC)CO[N+](=O)[O-] (stereo not given); n
21. C=CC(=O)OCC; n
22. CCCCC#N; n
23. OCC1CO1 (stereo not given); n
24. O=C(Cl)OCCOCCOC(=O)Cl; n
25. NP(N)(=O)NC(=O)c1ccc(F)cc1; n
26. C[N+]1(CCF)[C@@H]2CC[C@H]1CC(OC(=O)C(O)(c1ccccc1)c1ccccc1)C2 (stereo not given in full); n
27. Clc1ccccc1; n
28. O=C(O)C(F)(F)C(F)(F)C(F)(F)C(F)(F)C(F)(F)C(F)(F)C(F)(F)C(F)(F)F; n
29. COCc1cnc(C2=NC(C)(C(C)C)C(=O)N2)c(C(=O)O)c1 (stereo not given); n
30. CCOP(=O)(O)C(N)=O; n

====

- measurement notes: qHTS assay to identify small molecule antagonists of the sonic hedgehog signaling (Shh) pathway (AID 1259369); note: nearly all actives have a fitted effect of over 45% in size
- condition summary: NIH/3T3 Gli1-Luc reporter, Shh antagonist, luminescence 24 h; series mostly up to 92.4 µM
Results filed as inconclusive are left out. Calls of active or inactive are those of the source. Calls come from the whole dose curve.
Possible outcomes: active, inactive

1) CCOP(=O)(SC(C)CC)N1CCSC1=O (stereo not given); inactive
2) CCCCOC(=O)CCC(=O)OCCCC; inactive
3) CCCN(CCOc1c(Cl)cc(Cl)cc1Cl)C(=O)n1ccnc1; active
4) COc1ccc(C(O)(c2cncnc2)C2CC2)cc1 (stereo not given); inactive
5) CN(C1CCCCC1)C1CCCCC1; inactive
6) CCCC[N+](CCCC)(CCCC)CCCC; inactive
7) C1CS1; inactive
8) O=P(OCC(Br)CBr)(OCC(Br)CBr)OCC(Br)CBr (stereo not given); inactive
9) CC(C)(C)NCC(O)c1ccccc1Cl (stereo not given); inactive
10) CC(C)(C)CC(C)(C)c1ccc(O)cc1; active
11) C=CC(=O)OCC; inactive
12) CCCCCCCCCCCCN=C(N)N; active
13) CCCCCCCCCCCCCCCl; inactive
14) CCSCc1ccccc1OC(=O)NC; inactive
15) CN(C)c1ccc(N=O)cc1; active
